- Tested on: CCRIS mutagenicity, Ames/micronucleus/aberration tests
- assayDetails: CCRIS mutagenicity studies
- runParameters: Test System: AMES SALMONELLA TYPHIMURIUM; Strain/Indicator: TA1535; Metabolic Activation: RAT, LIVER, S-9, AROCLOR 1254; Method: STANDARD PLATE
Activity calls are given as the source filed them. How the calls were made is not given here.
Can you answer with just one of these options? active, inactive

Here are 5 molecules together with their reported answers.
{"columns": ["molecule", "classLabel"],
 "data": [
  ["CCN1CCN(C(=O)N[C@@H](C(=O)N[C@@H]2C(=O)N3[C@@H]2SC(C)(C)[C@@H]3C(=O)O)c2ccccc2)C(=O)C1=O", "inactive"],
  ["CC1=CC(=O)c2ccccc2C1=O", "inactive"],
  ["O=C1c2ccc(O)c(O)c2C(=O)c2c(O)ccc(O)c21", "inactive"],
  ["CCCC(O)C(CC)CO (stereo unspecified)", "inactive"],
  ["CO/N=C(\\C(=O)N[C@@H]1C(=O)N2C(C(=O)O)=C(CSC(=O)c3ccco3)CS[C@H]12)c1csc(N)n1", "inactive"]
]}

Look up the recorded call for CCCCCC(O)CC(=O)CCC1CCC(O)C(OC)C1 (stereo unspecified) in this test.
active
